Test system: SYO-1 complex spheroid growth, percent test/control
METHOD SUMMARY: Anticancer human tumor SYO-1 cell line growth inhibition [Asc];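 note: compound exposure lasted 7 days after spheroids grew 3 days; 100% = DMSO vehicle control viability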
EXPERIMENTAL SETUP: second compound 0.0316 µM; first compound 0.00316 µM; hits give low values
From the text: Multicellular complex tumor spheroid response to apoptosis pathway targeting inhibitors Alrizomadlin, Pelcitoclax, and Dasminapant in combination with a variety of drugs and investigational agents in selected tumor cell lines […] Compounds. […] If the clinical Cmax for an agent had not been determined, the highest concentration tested was 10 microM. […]
OUTCOME MEASURE: viability, T/C (%)

| COMPOUND | SYSTEM NAME | OUTCOME MEASURE | NUMERIC READOUT |
| --- | --- | --- | --- |
| O=C(c1ccc(F)c(F)c1Nc1ccc(I)cc1F)N1CC(O)([C@@H]2CCCCN2)C1 + CNC(C)C(=O)NC1CN(S(=O)(=O)c2cccc(S(=O)(=O)N3CCC4CCC(C(=O)NC(c5ccccc5)c5ccccc5)N4C(=O)C(NC(=O)C(C)NC)C3)c2)CCC2CCC(C(=O)NC(c3ccccc3)c3ccccc3)N2C1=O | SYO-1 complex spheroid growth, percent test/control | viability, T/C | 106 |
| O=C(c1ccc(F)c(F)c1Nc1ccc(I)cc1F)N1CC(O)([C@@H]2CCCCN2)C1 + Cc1c(S(C)(=O)=O)c(-c2cc(F)cc(N3CCN(c4ccc(NS(=O)(=O)c5ccc(NC(CCN6CCC(C(=O)OCCCP(=O)(O)O)CC6)CSc6ccccc6)c(S(=O)(=O)C(F)(F)F)c5)cc4)CC3)c2)c(-c2ccc(Cl)cc2)n1C(C)C | SYO-1 complex spheroid growth, percent test/control | viability, T/C | 98.2 |
| CNC(C)C(=O)NC1CN(S(=O)(=O)c2cccc(S(=O)(=O)N3CCC4CCC(C(=O)NC(c5ccccc5)c5ccccc5)N4C(=O)C(NC(=O)C(C)NC)C3)c2)CCC2CCC(C(=O)NC(c3ccccc3)c3ccccc3)N2C1=O (stereo not given) + Cc1c(S(C)(=O)=O)c(-c2cc(F)cc(N3CCN(c4ccc(NS(=O)(=O)c5ccc(NC(CCN6CCC(C(=O)OCCCP(=O)(O)O)CC6)CSc6ccccc6)c(S(=O)(=O)C(F)(F)F)c5)cc4)CC3)c2)c(-c2ccc(Cl)cc2)n1C(C)C | SYO-1 complex spheroid growth, percent test/control | viability, T/C | 94.8 |
| Cn1ncnc1[C@H]1c2n[nH]c(=O)c3cc(F)cc(c23)N[C@@H]1c1ccc(F)cc1 + CNC(C)C(=O)NC1CN(S(=O)(=O)c2cccc(S(=O)(=O)N3CCC4CCC(C(=O)NC(c5ccccc5)c5ccccc5)N4C(=O)C(NC(=O)C(C)NC)C3)c2)CCC2CCC(C(=O)NC(c3ccccc3)c3ccccc3)N2C1=O | SYO-1 complex spheroid growth, percent test/control | viability, T/C | 103 |
| NC1CCC(NC2CC2c2ccccc2)CC1 (stereo not given) + CNC(C)C(=O)NC1CN(S(=O)(=O)c2cccc(S(=O)(=O)N3CCC4CCC(C(=O)NC(c5ccccc5)c5ccccc5)N4C(=O)C(NC(=O)C(C)NC)C3)c2)CCC2CCC(C(=O)NC(c3ccccc3)c3ccccc3)N2C1=O | SYO-1 complex spheroid growth, percent test/control | viability, T/C | 89.7 |

* * *

Below, each of the molecules is paired with its reported viability, T/C value.
System: SYO-1 complex spheroid growth, percent test/control
METHOD SUMMARY: Anticancer human tumor SYO-1 cell line growth inhibition [Asc];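 note: compound exposure lasted 7 days after spheroids grew 3 days; 100% = DMSO vehicle control viability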
EXPERIMENTAL SETUP: second compound 0.03 µM; first compound 0.0316 µM; hits give low values
OUTCOME MEASURE: viability, T/C (%)

| MOLECULE | NUMERIC READOUT |
| --- | --- |
| C=C(F)C(=O)N1CCN(c2nc(OCC3CCCN3C)nc3c2CCN(c2cccc4cccc(Cl)c24)C3)CC1CC#N (stereo not drawn) + CCN1C(C(=O)NC23CCC(C(=O)O)(CC2)CC3)C(c2cccc(Cl)c2F)C2(C(=O)Nc3cc(Cl)ccc32)C12CCCCC2 | 96.9 |
| NC1CCC(NC2CC2c2ccccc2)CC1 (stereo not drawn) + CCN1C(C(=O)NC23CCC(C(=O)O)(CC2)CC3)C(c2cccc(Cl)c2F)C2(C(=O)Nc3cc(Cl)ccc32)C12CCCCC2 | 85.9 |
| C=CC(=O)N1CCN(c2nc(=O)n(-c3c(C)ccnc3C(C)C)c3nc(-c4c(O)cccc4F)c(F)cc23)C(C)C1 (stereo not drawn) + CCN1C(C(=O)NC23CCC(C(=O)O)(CC2)CC3)C(c2cccc(Cl)c2F)C2(C(=O)Nc3cc(Cl)ccc32)C12CCCCC2 | 98 |
